The values you see were collected from patent US20050282743A1.

Biological target: GST-BAI-1 Associated Protein PDZ domain 3 (Homo sapiens (Human)), Q96QZ7
Sequence (Q96QZ7 other isoform, or with tags, fused parts or gaps): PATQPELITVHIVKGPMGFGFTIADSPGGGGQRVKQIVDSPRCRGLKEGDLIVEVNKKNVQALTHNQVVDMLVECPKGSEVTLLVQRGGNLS
Assay: G assay titration, PDZ 0.5 ug/ml
Field: Kd. Provide a value for each of the binders that follow.
Numbers only, in nM.

binder | Kd [nM]
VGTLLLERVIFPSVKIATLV (modifications not checked) [AdenoE4 typ9] | 75

Q) For the binder shown here, DTLLLTENEGDKTEEQVSYV (modifications not checked) [serotonin receptor 5HT-2B] , give the reported Kd.
A) 2000
